Value source: patent US7521439B2

Observed pIC50, system progesterone receptor (PR) (Homo sapiens, UniProt P06401).
When answering, recall that pIC50 equals minus log10 of the concentration in mol/L, and write that number alone.

Exam item: Please look up its pIC50: CC#C[C@]1(O)[C@H](C)C[C@H]2[C@@H]3CCC4=CC(=O)CCC4=C3[C@@H](c3ccc(N(C)CCO[C@H]4CC[C@@]5(C)[C@@H](C4)C[C@@H](O)[C@@H]4[C@@H]5C[C@H](O)[C@]5(C)[C@@H]([C@H](C)CCC(=O)O)CC[C@@H]45)cc3)C[C@@]21C
Marked response: 8.80

Exam item: Queued: CC#C[C@]1(O)CC[C@H]2[C@@H]3CCC4=CC(=O)CCC4=C3[C@@H](c3ccc(N(C)CCO[C@H]4CC[C@@]5(C)[C@@H](C4)C[C@@H](O)[C@@H]4[C@@H]5C[C@H](O)[C@]5(C)[C@@H]([C@H](C)CCC(=O)O)CC[C@@H]45)cc3)C[C@@]21C
Marked response: 8.06

Exam item: Queued: CC#C[C@]1(O)CC[C@H]2[C@@H]3CCC4=CC(=O)CCC4=C3[C@@H](c3ccc(OCCO[C@H]4CC[C@@]5(C)C(C4)C[C@@H](O)[C@H]4[C@@H]6CC[C@H]([C@H](C)CCC(=O)O)[C@@]6(C)[C@@H](O)C[C@@H]45)c(C)c3)C[C@@]21C (stereo partly shown)
Marked response: 8.64

Exam item: Queued: CC#C[C@]1(O)CC[C@H]2[C@@H]3CCC4=CC(=O)CCC4=C3[C@@H](c3ccc(N(C)CCO[C@H]4CC[C@@]5(C)[C@@H](C4)C[C@@H](O)[C@@H]4[C@@H]5C[C@H](O)[C@]5(C)[C@@H]([C@H](C)CCC(=O)O)CC[C@@H]45)c(F)c3)C[C@@]21C
Marked response: 8.35
